TARGET ENTITY: CDK6/CyclinD3 (Homo sapiens)
Construct: purchased Carna 04-107
Sequence (Q00534 whole entry): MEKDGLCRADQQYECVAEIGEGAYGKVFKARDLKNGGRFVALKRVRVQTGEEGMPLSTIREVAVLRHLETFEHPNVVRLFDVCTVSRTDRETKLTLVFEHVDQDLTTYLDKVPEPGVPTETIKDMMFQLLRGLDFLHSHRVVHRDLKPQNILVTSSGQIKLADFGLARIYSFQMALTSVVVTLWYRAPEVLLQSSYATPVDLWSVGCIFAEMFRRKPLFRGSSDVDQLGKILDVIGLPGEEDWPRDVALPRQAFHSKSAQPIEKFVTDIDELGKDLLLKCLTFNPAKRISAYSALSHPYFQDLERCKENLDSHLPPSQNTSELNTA
Sequence (P30281 whole entry partner): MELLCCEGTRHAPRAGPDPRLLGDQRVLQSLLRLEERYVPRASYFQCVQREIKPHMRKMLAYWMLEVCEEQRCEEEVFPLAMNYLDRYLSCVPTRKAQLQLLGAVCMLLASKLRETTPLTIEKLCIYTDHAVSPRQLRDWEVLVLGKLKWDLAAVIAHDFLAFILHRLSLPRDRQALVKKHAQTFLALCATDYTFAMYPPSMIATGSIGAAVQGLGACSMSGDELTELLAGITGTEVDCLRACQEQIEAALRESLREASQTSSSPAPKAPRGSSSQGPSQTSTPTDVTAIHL
EXPERIMENTAL DETAILS: Assay for inhibition of CDK6/CyclinD3 (Caliper microfluidic kinase assay)
Type: biochemical
MEASUREMENT CONTEXT: CDK6/CyclinD3, 300 μM ATP
Each record here notes measured IC50.

[[record]]
compound = "CC(C)c1cnn2ccc(-c3ccnc(Nc4ccc(N5CCCC(N)C5=O)cc4)n3)cc12 (stereo not drawn) [compound 214]"
readout_value = "< 10 nM"

[[record]]
compound = "CC(C)c1cnn2ccc(-c3ccnc(Nc4ccc(N5CCC(N(C)C)CC5)cn4)n3)cc12 (single isomer, unassigned) [Synthetic Example 161]"
readout_value = "< 10 nM"

[[record]]
compound = "CNC1CCN(c2ccc(Nc3nccc(-c4ccn5ncc(C(C)C)c5c4)n3)nc2)C(=O)C1 (stereo not drawn) [Synthetic Example 204]"
readout_value = "< 10 nM"

[[record]]
compound = "CCN(CC)C1CCN(c2ccc(Nc3nccc(-c4ccn5ncc(C(C)C)c5c4)n3)nc2)C(=O)C1 (stereo not drawn) [compound 176]"
readout_value = "10 to 100 nM"

[[record]]
compound = "CCN1CCC(COc2cc(Nc3ncc(F)c(-c4ccn5ncc(C(C)C)c5c4)n3)ccn2)CC1 [compound 45]"
readout_value = "10 to 100 nM"


For the compound CC(C)n1cnc2c(F)nc(-c3ccnc(Nc4ccc(N5CCC(C)(N)CC5=O)cc4F)n3)cc21 (stereo not drawn) [compound 292] , report IC50.
< 10 nM

For the compound CC(C)c1cnn2ccc(-c3ccnc(Nc4ccc(N5CCC(N(C)C)CC5=O)cc4)n3)cc12 (stereo not drawn) [compound 172] , report IC50.
< 10 nM

For the compound CC(C)c1cnn2ccc(-c3nc(Nc4ccc(N5CCNCC5=O)cn4)ncc3F)cc12 [Synthetic Example 29] , report IC50.
10 to 100 nM

For the compound CCN1CCN(c2ccc(Nc3nccc(-c4cc5c(ncn5C(C)C)c(F)n4)n3)nc2)CC1 [compound 289] , report IC50.
< 10 nM

For the compound CCN1CCN(Cc2ccc(Nc3ncc(F)c(-c4ccn5ncc(Br)c5c4)n3)nc2)CC1 [compound 20] , report IC50.
> 1000 nM

For the compound CC(C)n1cnc2c1CN(c1ccnc(Nc3ccc(N4CCOCC4=O)cn3)n1)CC2 [Synthetic Example 57] , report IC50.
100 to 1000 nM

For the compound COc1nc(-c2nc(Nc3ccc(N4CCNCC4=O)c(F)c3)ncc2F)cc2c1ncn2C(C)C [compound 115] , report IC50.
10 to 100 nM

For the compound COc1nc(-c2nc(Nc3ccc(N4CCNCC4=O)cc3F)ncc2F)cc2c1ncn2C(C)C [compound 111] , report IC50.
10 to 100 nM

For the compound CC(C)n1cnc2c(F)nc(-c3ccnc(Nc4ccc(N5CCC(N(C)C)CC5=O)cc4)n3)cc21 (stereo not drawn) [compound 281] , report IC50.
< 10 nM

For the compound CC(C)n1cnc2c1CN(c1ccnc(Nc3ccc(N4CCC(C)(N)CC4=O)cn3)n1)CC2 (stereo not drawn) [compound 244] , report IC50.
100 to 1000 nM

====

TARGET ENTITY: CDK2/CyclinE1 (Homo sapiens, UniProt P24941)
Construct: purchased SignalChem C29-18G
EXPERIMENTAL DETAILS: Assay for inhibition of CDK2/CyclinE1 (Caliper microfluidic kinase assay)
Format: biochemical
MEASUREMENT CONTEXT: CDK2/CyclinE1, 100 μM ATP; read-out: CDK2 IC50
pIC50: −log10 of the molar value.
Each record here notes measured pIC50.

[[record]]
compound = "CC(C)n1cnc2c(F)nc(-c3ccnc(Nc4ccc(N5CCC(C)(N)CC5=O)cc4Cl)n3)cc21 (stereo not drawn)"
target_entity = "CDK2/CyclinE1 (Homo sapiens, UniProt P24941)"
readout_value = "> 8.00"

[[record]]
compound = "COc1nc(-c2nc(Nc3ccc(N4CCC(N(C)C)CC4=O)cn3)ncc2F)cc2c1nc(C)n2C(C)C (single isomer, unassigned) [Example 62-1]"
target_entity = "CDK2/CyclinE1 (Homo sapiens, UniProt P24941)"
readout_value = "< 6.00"

[[record]]
compound = "CC(C)c1cnn2ccc(-c3ccnc(Nc4ccc(N5CCOCC5=O)cc4F)n3)cc12"
target_entity = "CDK2/CyclinE1 (Homo sapiens, UniProt P24941)"
readout_value = "> 8.00"

[[record]]
compound = "CC(C)(C)c1cnn2ccc(-c3ccnc(Nc4ccc(N5CCNCC5=O)cc4F)n3)cc12"
target_entity = "CDK2/CyclinE1 (Homo sapiens, UniProt P24941)"
readout_value = "> 8.00"

[[record]]
compound = "CCN1CC(=O)N(c2ccc(Nc3ncc(F)c(-c4ccn5ncc(C(C)C)c5c4)n3)nc2)CC1=O"
target_entity = "CDK2/CyclinE1 (Homo sapiens, UniProt P24941)"
readout_value = "7.00 to 8.00"


For the compound CC(C)c1cnn2ccc(-c3ccnc(Nc4ccc(N5CCC(O)CC5=O)cn4)n3)cc12 (stereo not drawn) , report pIC50.
7.00 to 8.00

For the compound Cc1nc2c(F)nc(-c3ccnc(Nc4ccc(N5CCCC(N(C)C)C5=O)cn4)n3)cc2n1C(C)C (single isomer, unassigned) [Synthetic Example 302] , report pIC50.
< 6.00

For the compound CC1(C)COc2c(F)cc(-c3ccnc(Nc4ccc(N5CCNCC5=O)cn4)n3)cc21 [Synthetic Example 59] , report pIC50.
7.00 to 8.00

For the compound CC(C)c1cnn2ccc(-c3ccnc(Nc4ccn(CC5CCN(C(=O)CC#N)CC5)n4)n3)cc12 , report pIC50.
< 6.00

For the compound CC(C)c1cnn2ccc(-c3ccnc(Nc4ccc(C(=O)N5CCC(N(C)C)CC5)cc4)n3)cc12 , report pIC50.
> 8.00

For the compound CC(C)c1cnn2ccc(-c3ccnc(Nc4ccc(N5CCNCC5=O)c(F)c4F)n3)cc12 , report pIC50.
> 8.00

For the compound CCN1CCC(Cn2ccc(Nc3ncc(F)c(-c4ccn5ncc(C(C)C)c5c4)n3)cc2=O)CC1 , report pIC50.
6.00 to 7.00

For the compound COc1nc(-c2nc(Nc3ccc(N4CCNCC4=O)cn3)ncc2F)cc2c1nc(C)n2C(C)C , report pIC50.
< 6.00

For the compound CC(C)n1cnc2c1CN(c1ccnc(Nc3ccc(N4CCC(N5CC(F)C5)CC4=O)cn3)n1)CC2 (stereo not drawn) , report pIC50.
7.00 to 8.00

For the compound CC(C)c1cnn2ccc(-c3nc(Nc4ccc(N5CCN(CCF)CCC5=O)cn4)ncc3F)cc12 , report pIC50.
7.00 to 8.00

====

System: phosphorylation of Retinoblastoma Protein (pRb Ser807/811 or Ser780) in T47D cells
EXPERIMENTAL DETAILS: Inhibition of phosphorylation of retinoblastoma protein (pRb) in T47D cell (ELISA)
Assay type: cell-based, human
MEASUREMENT CONTEXT: Homo sapiens, T47D, read-out: Phospho T47D Ser807 IC50, pRb Ser807 phosphorylation, T47D cells
pIC50: −log10 of the molar value.
ASSAY ENDPOINT: pIC50

Recorded results for 3 molecules are shown here.
[[record]]
molecule = "COc1nc(-c2nc(Nc3ccc(N4CCC(N(C)C)CC4=O)cn3)ncc2F)cc2c1nc(C)n2C(C)C (single isomer, unassigned) [Example 62-1]"
assay_endpoint = "pIC50"
readout_value = "6.30 to 7.00"

[[record]]
molecule = "CC(C)c1cnn2ccc(-c3ccnc(Nc4ccc(N5CCOCC5=O)cn4)n3)cc12"
assay_endpoint = "pIC50"
readout_value = "> 7.00"

[[record]]
molecule = "CC(C)c1cnn2ccc(-c3nc(Nc4ccc(N5CCN(C6CNC6)CCC5=O)cn4)ncc3F)cc12"
assay_endpoint = "pIC50"
readout_value = "> 7.00"


Below: the item to evaluate.
For the molecule COc1nc(-c2nc(Nc3ccc(N4CCN(S(C)(=O)=O)CC4=O)cn3)ncc2F)cc2c1nc(C)n2C(C)C [Synthetic Example 127] , report pIC50.
6.30 to 7.00

====

TARGET ENTITY: CDK6/CyclinD3 (Homo sapiens)
Construct: purchased Carna 04-107
EXPERIMENTAL DETAILS: Assay for inhibition of CDK6/CyclinD3 (Caliper microfluidic kinase assay)
Format: biochemical
MEASUREMENT CONTEXT: CDK6/CyclinD3, 300 μM ATP
pIC50: −log10 of the molar value.
ASSAY ENDPOINT: pIC50

[[record]]
molecule = "COc1nc(-c2nc(Nc3ccc(N4CCN(CC(F)(F)F)CC4=O)cn3)ncc2F)cc2c1nc(C)n2C(C)C [compound 124]"
readout_value = "7.00 to 8.00"

[[record]]
molecule = "CC(C)c1cnn2ccc(-c3nc(Nc4ccc(N5CCNCCC5=O)cn4)ncc3F)cc12 [compound 34]"
readout_value = "7.00 to 8.00"

[[record]]
molecule = "CC(C)n1cnc2c(F)nc(-c3nc(Nc4ccc(N5CCC(N(C)C)CC5=O)cn4)ncc3Cl)cc21 (stereo not drawn) [compound 278]"
readout_value = "7.00 to 8.00"

[[record]]
molecule = "CC(C)c1cnn2ccc(-c3ccnc(Nc4ccc(N5CCC(N(C)C)CC5=O)cn4)n3)cc12 (stereo not drawn) [Synthetic Example 16]"
readout_value = "> 8.00"


For the molecule CC(C)n1cnc2c(F)nc(-c3ccnc(Nc4ccc(N5CCC(C)(N)CC5=O)cc4)n3)cc21 (stereo not drawn) [compound 280] , report pIC50.
> 8.00

For the molecule Cc1nn2ccc(-c3ccnc(Nc4ccc(N5CCC(N(C)C)CC5=O)cc4)n3)cc2c1C(C)C (stereo not drawn) [compound 177] , report pIC50.
> 8.00

For the molecule CC(C)n1cnc2c(F)nc(-c3ccnc(Nc4ccc(N5CCC(C)(N)CC5=O)cn4)n3)cc21 (stereo not drawn) [compound 271] , report pIC50.
> 8.00

For the molecule CC(C)c1cnn2ccc(-c3nc(Nc4ccc(N5CCC(N(C)C)CC5)cn4)ncc3F)cc12 [compound 9] , report pIC50.
7.00 to 8.00

For the molecule CN(C)C1CCCN(c2ccc(Nc3nccc(-c4cc(F)c5c(c4)C(C)(C)CO5)n3)nc2)C1=O (stereo not drawn) [compound 261] , report pIC50.
7.00 to 8.00

For the molecule CC(C)c1cnn2ccc(-c3ccnc(Nc4ccc(N5CCN(C6CNC6)CC5=O)cn4)n3)cc12 [Synthetic Example 40] , report pIC50.
7.00 to 8.00

For the molecule CC(C)c1cnn2ccc(-c3ccnc(Nc4ccc(N5CC(N(C)C)CC5=O)cn4)n3)cc12 (stereo not drawn) [Synthetic Example 39] , report pIC50.
7.00 to 8.00

For the molecule CC(C)c1cnn2ccc(-c3ccnc(Nc4ccc(N5CCC(C)(N)CC5=O)cn4)n3)cc12 (stereo not drawn) [compound 196] , report pIC50.
7.00 to 8.00

Values were extracted from patent US20220296595A1.
